# Method Notes: in vitro
# Condition Info: human, hela cells, % viability
Label Satisfied when viability at 28.5 h, 10 µM is strictly below 90%; at or above that, label Not satisfied.

[Q] Please check: viability at 28.5 h, 10 µM for O=c1/c(=C/c2ccncc2)sc2n1CN(c1cccc(F)c1)CN=2 [CBK264340] , strictly under 90% or not?
[A] Not satisfied

[Q] Bench note: check whether COc1ccnc(N2CCN(C(=O)c3ccncc3Cl)CC2)n1 [CBK304367] shows viability at 28.5 h, 10 µM below 90%
[A] Not satisfied

[Q] For this molecule, is viability at 28.5 h, 10 µM lower than 90%? CCCC(=O)c1ccc(S(=O)(=O)N2CCN(Cc3ccc(O)c(F)c3)CC2)cc1 [CBK062959]
[A] Not satisfied

[Q] Does CCc1c(C)nc(SC(C(=O)O)c2ccccc2)c(C#N)c1C (stereo not drawn) [CBK270174] have viability at 28.5 h, 10 µM strictly under 90%?
[A] Not satisfied

[Q] For this molecule, is viability at 28.5 h, 10 µM lower than 90%? O=C(O)CCCNC(=O)c1ccncc1 [CBK261146]
[A] Not satisfied

[Q] Consider the molecule Cc1oc2ncn(Cc3ccccc3)c(=N)c2c1C [CBK288160] . Is its viability at 28.5 h, 10 µM strictly less than 90%?
[A] Not satisfied

[Q] Report whether reported viability at 28.5 h, 10 µM is lower than 90% (strictly) for Nc1nnc(-c2cccc(Cl)c2Cl)c(N)n1 [CBK011590]
[A] Satisfied

[Q] API: query returns whether the molecule falls strictly under 90% in viability at 28.5 h, 10 µM. Query: C[C@H]1[C@@H]2[C@@H](O)C([C@H](C)C(=O)N3CCCC3)CC[C@@]2(C)CC[C@@H]1NC(=O)c1ccncc1 (stereo partly drawn) [CBK289450]
[A] Not satisfied

[Q] Dear colleague, could you confirm whether viability at 28.5 h, 10 µM of Cc1ccc(-n2ncc3c(=O)n(CC(=O)Nc4ccccc4)cnc32)cc1C [CBK287539] falls below 90%? Thanks.
[A] Satisfied

###

# Method Notes: in vitro
# Condition Info: human, hela cells, % viability
Readout: viability at 28.5 h, 10 µM (%)
# number only, unit % dropped from output

[Q] Using the record for O=C1NCC2(CCN(C(=O)C3CCCC3)CC2)Oc2ccccc21 , report its viability at 28.5 h, 10 µM.
[A] 94.1

[Q] Would you kindly share the measured viability at 28.5 h, 10 µM for CCCC(=O)Nc1ccc(OCc2cnccn2)c(C(C)=O)c1 ?
[A] 102

[Q] May I ask what viability at 28.5 h, 10 µM has been recorded for CC(CCN(C)CCN(C)C)c1ccccc1 (centres unmarked) ?
[A] 87.6

[Q] I have this molecule here, CCn1cc(C2CN(S(=O)(=O)Cc3ccccc3)CCO2)cn1 (centres unmarked) , and I need its recorded viability at 28.5 h, 10 µM.
[A] 106

[Q] // viability at 28.5 h, 10 µM lookup, key: Cc1ccc(N(CC(=O)N/N=C/c2ccc(Cl)cc2)S(=O)(=O)c2ccccc2)cc1
[A] 98.3

[Q] Fill in: viability at 28.5 h, 10 µM of CCn1c(SCC(=O)Nc2cc(C)ccc2F)nnc1-c1ccccc1O is ___
[A] 91.4

[Q] Looking for the measured viability at 28.5 h, 10 µM of CC(C)(c1noc(C2CCOCC2)n1)S(=O)(=O)c1ccc(Br)cc1 , can you help?
[A] 93.5

[Q] Please look up its viability at 28.5 h, 10 µM: COCCN(CCOC)c1ncc(C#N)cc1Cl
[A] 92.6

[Q] Fill in: viability at 28.5 h, 10 µM of O=C(O)CC(C(=O)Nc1ccc(Cl)cc1)C1CCCO1 (centres unmarked) is ___
[A] 94.2

[Q] What value of viability at 28.5 h, 10 µM has been recorded for this entry: CSCCC(NC(=O)c1c(C)oc2c1CCCC2)C(=O)O (centres unmarked)
[A] 82

[Q] What value of viability at 28.5 h, 10 µM has been recorded for this entry: Cc1nc2ccc(C(=O)NC3=NC(=O)CS3)cn2c1N(C)Cc1cccs1
[A] 86.3

[Q] What value of viability at 28.5 h, 10 µM has been recorded for this entry: CN(C)CCN(Cc1ccncc1)Cc1ccsc1
[A] 102

[Q] So what does the record say about viability at 28.5 h, 10 µM for COc1ccc(C(C)C)cc1-c1cncc(N2CCC(C(=O)O)CC2)n1 ?
[A] 104

[Q] # lookup: viability at 28.5 h, 10 µM of COc1ccc(C(=O)N2C[C@@H]3C[C@H](C2)c2ccc(NC(=O)C4CC4)c(=O)n2C3)cc1
[A] 90

[Q] Please give the measured viability at 28.5 h, 10 µM for this molecule: Cn1nnc(NC(=O)COc2ccc(C3CCCCC3)cc2)n1
[A] 95.9

[Q] Bench note: what viability at 28.5 h, 10 µM did CCOC(=O)C(Cc1ccccc1)NC(=O)c1ccc(C)nc1 (centres unmarked) show?
[A] 89.6

[Q] State the recorded viability at 28.5 h, 10 µM for this entry: Cc1ccc(-c2csc3nc(SCC(=O)NCC4CCCO4)n(-c4ccccc4)c(=O)c23)cc1 (centres unmarked)
[A] 82.6

[Q] Item CN1CCN(CCC(=O)N2CCN(c3ncccn3)CC2)CC1 has what recorded viability at 28.5 h, 10 µM?
[A] 84.5

[Q] Field request: viability at 28.5 h, 10 µM | item: O=C(O)c1cccc(CSc2nc3ccccc3o2)c1
[A] 91.7

[Q] Which viability at 28.5 h, 10 µM reading was recorded for the molecule Cc1cc(CC(=O)N2CCN(C(=O)c3ccco3)CC2)on1 ?
[A] 96.3
